- System: Staphylococcus aureus (ATCC 6538)
- assay name: Stand-alone biocidal test without organic soil
- Type: cell-based
- measurement parameters: 25 ppm in BBS, without organic soil, 4 hr.
observable: Stand-alone biocidal result (microbial log reduction) S. aureus

# mol smiles, result
measured = [
    ("CCCCCCCCCCCCCC(=O)OCCC[N+](C)(C)CCCCCCCCCC", 4.8),
    ("CCCCCCCC(=O)OCCC[N+](C)(C)C", "TNTC"),
    ("CCCCCCCCCCCCCC(=O)OCCOCC[N+](C)(C)C", ">4.8"),
    ("CCCCCCCCCCCCCC(=O)OCCC[N+](C)(C)CCCC", ">4.8"),
    ("CCCCCCCCCCCCCC(=O)OCCC[N+](C)(C)C", ">4.7"),
    ("CCCCCCCCCCCCCC(=O)OCCC[N+](C)(C)Cc1ccccc1", ">4.8"),
    ("CCCCCCCCCCCCCCCCCC(=O)OCCC[N+](C)(C)C", ">4.8"),
    ("CCCCCCCCCCCC(=O)OCCC[N+](C)(C)C", "TNTC"),
]

Recorded values, source patent US20040115160A1.
